Would you kindly list Ki for each of these molecules?
# tested on: APH(2”)-IVa (Enterococcus casseliflavus, UniProt O68183)
# Sequence (O68183 1-301): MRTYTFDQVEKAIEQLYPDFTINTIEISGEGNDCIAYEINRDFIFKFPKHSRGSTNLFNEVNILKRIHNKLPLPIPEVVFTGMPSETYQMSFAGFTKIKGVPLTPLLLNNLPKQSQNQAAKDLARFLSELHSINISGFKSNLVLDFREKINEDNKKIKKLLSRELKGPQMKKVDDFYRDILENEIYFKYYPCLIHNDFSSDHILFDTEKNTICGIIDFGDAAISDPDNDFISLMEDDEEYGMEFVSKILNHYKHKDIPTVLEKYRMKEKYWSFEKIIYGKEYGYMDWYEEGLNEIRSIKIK
# protocol details: biochemical
# assay setup: Ki (µM), inhibition constant, ATP-competitive; 0-2 mM MgATP, 100 µM kanamycin A, global fitting
Note: unit µM is implicit; provide only the numeric part.

Which Ki value belongs to Clc1cnc2[nH]ccc2c1-c1ccc[nH]1 ?
1.74

Which Ki value belongs to O=C(NCCc1ccc(O)cc1)c1cc(NC2CC2)ncc1Cl ?
11.9

Which Ki value belongs to O=C(NCc1ccccc1)c1cc(NC2CC2)ncc1Cl ?
79.1

Which Ki value belongs to CN(C)CCNC(=O)c1cc(NC2CC2)ncc1Cl ?
18.6

Which Ki value belongs to Clc1cnc2[nH]ccc2c1-c1ccn[nH]1 ?
0.39

Which Ki value belongs to NC(=O)c1c[nH]c2ncc(Cl)cc12 ?
10.3

Which Ki value belongs to Nc1ccccn1 ?
260

Which Ki value belongs to O=C(O)c1cc(NC2CC2)ncc1Cl ?
18.2

Which Ki value belongs to Clc1cnc2[nH]ccc2c1-c1cn[nH]c1 ?
1.58

Which Ki value belongs to NCCNC(=O)c1cc(NC2CC2)ncc1Cl ?
16.3

Which Ki value belongs to O=C(NCCc1ccn(-c2ccccc2)n1)c1cc(NC2CC2)ncc1Cl ?
13.4

====

# tested on: APH(3’)-IIa (Klebsiella pneumoniae, UniProt P00552)
# Sequence (P00552 whole entry): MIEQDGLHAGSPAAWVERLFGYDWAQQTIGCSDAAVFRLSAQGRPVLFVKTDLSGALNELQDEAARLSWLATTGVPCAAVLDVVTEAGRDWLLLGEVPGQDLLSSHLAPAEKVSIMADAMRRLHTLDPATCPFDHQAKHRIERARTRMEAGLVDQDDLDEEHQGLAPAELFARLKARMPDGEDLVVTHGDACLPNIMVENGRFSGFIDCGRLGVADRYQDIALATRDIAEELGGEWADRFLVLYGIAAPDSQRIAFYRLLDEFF
quantity measured: Kd

Which Kd value belongs to Clc1cnc2[nH]ccc2c1-c1ccn[nH]1 ?
1250 nM
